Tested on: TK-10
assay summary: Growth inhibition of human TK10 cells after 48 hrs by Sulforhodamine B assay
Assay type: functional
condition description: TK-10, 48 h
measurement label: GI50 (µM)
Form entry: value (µM) — number only.

Just so you know, measured GI50 for c1ccc(-c2nc(N3CCOCC3)c3c4c(sc3n2)CCCCCC4)nc1 came out at 9.33

Just so you know, measured GI50 for NNc1nc(-c2ccccn2)nc2sc3c(c12)CCCCCC3 came out at 9.12

Just so you know, measured GI50 for CN1CCN(c2nc(-c3ccncc3)nc3sc4c(c23)CCCCCC4)CC1 came out at 6.76

====

Tested on: OVCAR-8
assay summary: Growth inhibition of human OVCAR8 cells after 48 hrs by Sulforhodamine B assay
Format: functional
condition description: OVCAR-8, 48 h
Kindly supply the reported GI50 values for the records listed here.
Form entry: value (µM) — number only.

Hey, OVCAR-8 data for COc1ccc(N2CCN(c3nc(-c4ccccn4)nc4sc5c(c34)CCCCCC5)CC2)cc1 : GI50 came out at 5.25

Hey, OVCAR-8 data for c1ccc(-c2nc(N3CCOCC3)c3c4c(sc3n2)CCCCCC4)nc1 : GI50 came out at 5.13

Hey, OVCAR-8 data for O=c1[nH]c(-c2ccccn2)nc2sc3c(c12)CCCCCC3 : GI50 came out at 4.37

Hey, OVCAR-8 data for CN1CCN(c2nc(-c3ccncc3)nc3sc4c(c23)CCCCCC4)CC1 : GI50 came out at 12.3

Hey, OVCAR-8 data for NNc1nc(-c2ccccn2)nc2sc3c(c12)CCCCCC3 : GI50 came out at 4.37

====

System: M14
assay summary: Growth inhibition of human M14 cells after 48 hrs by Sulforhodamine B assay
Assay type: functional
condition description: M14, 48 h
Kindly supply the reported GI50 values for the records listed here.
Form entry: value (µM) — number only.

Just so you know, measured GI50 for NNc1nc(-c2ccccn2)nc2sc3c(c12)CCCCCC3 came out at 5.5

Just so you know, measured GI50 for O=c1[nH]c(-c2ccccn2)nc2sc3c(c12)CCCCCC3 came out at 4.07

Just so you know, measured GI50 for CN1CCN(c2nc(-c3ccncc3)nc3sc4c(c23)CCCCCC4)CC1 came out at 5.37

Just so you know, measured GI50 for COc1ccc(N2CCN(c3nc(-c4ccccn4)nc4sc5c(c34)CCCCCC5)CC2)cc1 came out at 5.37

Just so you know, measured GI50 for c1ccc(-c2nc(N3CCOCC3)c3c4c(sc3n2)CCCCCC4)nc1 came out at 4.17

====

System: UACC-62
assay summary: Growth inhibition of human UACC62 cells after 48 hrs by Sulforhodamine B assay
Type: functional
condition description: UACC-62, 48 h
Mark each entry Met if its GI50 sits below 6 µM, and Not met for all others.

Query string: Determine if CN1CCN(c2nc(-c3ccncc3)nc3sc4c(c23)CCCCCC4)CC1 shows GI50 strictly lower than 6 µM.
Result string: Not met

Query string: Determine if COc1ccc(N2CCN(c3nc(-c4ccccn4)nc4sc5c(c34)CCCCCC5)CC2)cc1 shows GI50 strictly lower than 6 µM.
Result string: Not met

Query string: Determine if O=c1[nH]c(-c2ccncc2)nc2sc3c(c12)CCCCCC3 shows GI50 strictly lower than 6 µM.
Result string: Not met

Query string: Determine if c1ccc(-c2nc(N3CCOCC3)c3c4c(sc3n2)CCCCCC4)nc1 shows GI50 strictly lower than 6 µM.
Result string: Met

Query string: Determine if O=c1[nH]c(-c2ccccn2)nc2sc3c(c12)CCCCCC3 shows GI50 strictly lower than 6 µM.
Result string: Met
